test: activity coefficient (dimensionless); of the first substance listed, at infinite dilution; xn = mol fraction of the nth substance listed; details: 288.15 K; 101 kPa; Liquid; Chromatography; x1 = 0
Readout Type: activity coefficient
Lab note: jot the number down without any unit.

Q: Report activity coefficient for c1ccsc1 [thiophene] + O please.
Ans: 1260

Q: How about CCOC(C)(C)CC(C)(C)C [ethyl 1,1,3,3-tetramethylbutyl ether] + O ?
Ans: 111000

Q: How about CCC(C)(C)OC [2-methoxy-2-methylbutane] + O ?
Ans: 390

Q: How about CCCS [1-propanethiol] + O ?
Ans: 1420

* * *

assay: activity coefficient (dimensionless); of the first substance listed, at infinite dilution; xn = mol fraction of the nth substance listed; conditions: 318.15 K; 101 kPa; Liquid; Chromatography; x1 = 0
activity coefficient below 1000 gives False; activity coefficient at or above it gives True.

Q: Does activity coefficient meet or surpass 1000 for CCOC(C)(C)CC [1,1-dimethylpropyl ethyl ether] + O ?
Ans: True

Q: How about CCCS [1-propanethiol] + O ?
Ans: True

Q: How about Cc1ccccc1 [toluene] + O ?
Ans: True

Q: How about CCOC(C)(C)C [2-ethoxy-2-methylpropane] + O ?
Ans: False

Q: How about CCC(C)(C)OC [2-methoxy-2-methylbutane] + O ?
Ans: True

Q: How about c1ccsc1 [thiophene] + O ?
Ans: True

Q: How about CCOC(C)(C)CC(C)(C)C [ethyl 1,1,3,3-tetramethylbutyl ether] + O ?
Ans: True

Q: How about COC(C)(C)C [2-methoxy-2-methylpropane] + O ?
Ans: False

Q: How about CCCCS [1-butanethiol] + O ?
Ans: True

Q: How about CC(C)S [2-propanethiol] + O ?
Ans: True

* * *

assay: activity coefficient (dimensionless); of the first substance listed, at infinite dilution; xn = mol fraction of the nth substance listed; details: 288.15 K; 101 kPa; Liquid; Chromatography; x1 = 0
activity coefficient below 1000 gives Not fulfilled; activity coefficient at or above it gives Fulfilled.

Q: Does activity coefficient meet or surpass 1000 for CCOC(C)(C)CC [1,1-dimethylpropyl ethyl ether] + O ?
Ans: Fulfilled

Q: How about CCOC(C)(C)C [2-ethoxy-2-methylpropane] + O ?
Ans: Not fulfilled

Q: How about CC(C)S [2-propanethiol] + O ?
Ans: Fulfilled

Q: How about COC(C)(C)C [2-methoxy-2-methylpropane] + O ?
Ans: Not fulfilled

Q: How about CCCCS [1-butanethiol] + O ?
Ans: Fulfilled

Q: How about Cc1ccccc1 [toluene] + O ?
Ans: Fulfilled

* * *

So I've got a bunch of molecules here, and I need their activity coefficient values.
test: activity coefficient (dimensionless); of the first substance listed, at infinite dilution; xn = mol fraction of the nth substance listed; conditions: 333.15 K; 101 kPa; Liquid; Chromatography; x1 = 0
Lab note: jot the number down without any unit.

Q: Report activity coefficient for CCCS [1-propanethiol] + O please.
Ans: 1310

Q: How about CCOC(C)(C)CC(C)(C)C [ethyl 1,1,3,3-tetramethylbutyl ether] + O ?
Ans: 76900

Q: How about c1ccsc1 [thiophene] + O ?
Ans: 1100

Q: How about CCCCS [1-butanethiol] + O ?
Ans: 4140

Origin of the recorded values: the NIST ThermoML archive (doi:10.1016/j.fluid.2006.02.022)
